Tgt: hPif1-HD (Homo sapiens, UniProt Q9H611)
Sequence (Q9H611 200-641): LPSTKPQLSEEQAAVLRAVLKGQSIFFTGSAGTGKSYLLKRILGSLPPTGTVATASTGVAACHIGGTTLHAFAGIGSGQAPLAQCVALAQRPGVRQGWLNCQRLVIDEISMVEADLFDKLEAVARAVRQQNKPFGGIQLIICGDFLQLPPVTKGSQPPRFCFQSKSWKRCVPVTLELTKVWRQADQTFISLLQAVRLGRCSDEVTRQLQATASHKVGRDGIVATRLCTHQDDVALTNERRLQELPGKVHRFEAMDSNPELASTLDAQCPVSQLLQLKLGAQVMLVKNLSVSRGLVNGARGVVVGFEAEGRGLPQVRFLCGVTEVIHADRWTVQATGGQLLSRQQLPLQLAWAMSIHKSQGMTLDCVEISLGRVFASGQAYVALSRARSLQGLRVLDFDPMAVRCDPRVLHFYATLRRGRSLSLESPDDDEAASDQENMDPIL
Experiment description: FP assay of DNA-binding activity
Property measured: pIC50
In simple prose, pIC50 is minus the logarithm base ten of a concentration in moles per litre.

Item `O=c1sn(-c2cccc3ccccc23)c(=O)n1Cc1ccccc1` has what recorded pIC50?
5.24

* * *

Tgt: BaPif1
Experiment description: ATPase activity assay
Run conditions: read-out: IC50, inhibition of ATPase activity of BaPif1
Property measured: pIC50
Keep it numeric: pIC50 is minus log10 of the concentration in mol/L.

Give the measured pIC50 of `O=c1sn(-c2cccc3ccccc23)c(=O)n1Cc1ccccc1` .
5.64

* * *

Tested on: BaPif1 (Bacteroides sp. 2-1-16)
Experiment description: fluorescence polarization
Property measured: pKd
In simple prose, pKd is minus the logarithm base ten of a concentration in moles per litre.

What value of measured pKd is listed for TTTTTTTTTTTTTTTTTT [FAM-dT18] ?
5.15
